Catalogue of IC50 values
Target: Dual specificity protein phosphatase 6 (Rattus norvegicus, UniProt Q64346)
Sequence (Q64346 whole entry): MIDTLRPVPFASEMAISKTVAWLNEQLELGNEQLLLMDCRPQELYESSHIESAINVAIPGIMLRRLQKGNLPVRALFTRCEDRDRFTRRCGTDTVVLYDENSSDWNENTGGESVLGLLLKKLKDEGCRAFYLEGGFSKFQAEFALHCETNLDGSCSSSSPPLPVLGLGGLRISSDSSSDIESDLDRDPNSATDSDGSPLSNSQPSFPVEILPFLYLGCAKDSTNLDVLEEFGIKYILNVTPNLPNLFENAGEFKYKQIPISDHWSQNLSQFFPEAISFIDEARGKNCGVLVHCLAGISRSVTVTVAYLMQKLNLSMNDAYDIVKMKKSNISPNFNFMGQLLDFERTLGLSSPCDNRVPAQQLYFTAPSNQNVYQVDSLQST
Give a bare numeral; the unit µM is implied.

CCN(CC)CCCN1C(=O)C(=O)C(C(=O)c2ccccc2)C1c1ccccn1 (stereo not drawn) :: 100

Exam item: Entry COC1=CC=CC(/C=N/NC(=O)c2cc3cc([N+](=O)[O-])ccc3s2)C1=O (stereo not drawn) : reported IC50 = ?
Marked response: 116

Exam item: GET /values?readout=IC50&item= `Cc1ccc(NC(=O)CN2C(=O)C(=NNC(=O)c3cc([N+](=O)[O-])ccc3O)c3ccccc32)cc1`
Marked response: 31

Data origin: BindingDB's records for doi:10.7270/Q2W66J6B
